These entries and their values trace back to patent US7060683B2.

# Experimental target: Recombinant human calpain I (Homo sapiens)
# Assay text: Inhibition of Calpain (Succ-Leu-Tyr-MNA substrate hydrolysis)
# Measurement parameters: 0.2 mM Succ-Leu-Tyr-MNA, pH 7.5, five to seven concentrations
Observation type: pIC50
Value format note: pIC50 is -log10 of concentration (mol/L); just state the number.

CS(=O)(=O)N[C@H](COCc1ccccc1)C(=O)N[C@@H](Cc1ccccc1)C(=O)C(=O)NOCc1ccccc1: 7.55
CC(C)C[C@H](NC(=O)OCc1ccccc1)C(=O)N[C@@H](Cc1ccccc1)C(=O)C(=O)NOC1CCC(C)CC1 (stereo partly drawn): 7.68

Now consider the entry below.
What value of pIC50 has been recorded for this entry: CCCC[C@H](NC(=O)[C@H](Cc1ccccc1)NC(=O)c1ccccc1)C(=O)C(=O)NOCC
6.71

====

# Experimental target: Recombinant human calpain I (Homo sapiens, UniProt P07384)
# Construct: made in house
# Sequence (P07384 whole entry): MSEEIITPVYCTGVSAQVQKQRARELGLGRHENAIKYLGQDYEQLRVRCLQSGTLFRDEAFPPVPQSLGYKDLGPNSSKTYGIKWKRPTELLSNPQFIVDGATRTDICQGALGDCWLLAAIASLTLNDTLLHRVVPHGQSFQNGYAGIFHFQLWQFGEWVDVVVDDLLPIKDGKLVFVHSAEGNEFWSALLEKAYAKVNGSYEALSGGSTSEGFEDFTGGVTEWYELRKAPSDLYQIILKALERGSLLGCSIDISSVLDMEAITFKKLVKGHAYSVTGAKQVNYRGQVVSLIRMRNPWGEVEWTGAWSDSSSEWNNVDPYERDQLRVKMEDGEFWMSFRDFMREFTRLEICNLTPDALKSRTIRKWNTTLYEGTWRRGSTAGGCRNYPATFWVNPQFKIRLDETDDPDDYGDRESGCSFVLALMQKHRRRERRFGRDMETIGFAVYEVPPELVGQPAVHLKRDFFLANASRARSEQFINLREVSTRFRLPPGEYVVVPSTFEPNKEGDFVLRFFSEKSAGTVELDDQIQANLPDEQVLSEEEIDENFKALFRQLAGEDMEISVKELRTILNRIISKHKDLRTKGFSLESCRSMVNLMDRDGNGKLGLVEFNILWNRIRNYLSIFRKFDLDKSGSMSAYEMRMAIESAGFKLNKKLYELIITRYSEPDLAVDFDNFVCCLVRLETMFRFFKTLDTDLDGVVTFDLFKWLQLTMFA
# Sequence (P04632 whole entry partner): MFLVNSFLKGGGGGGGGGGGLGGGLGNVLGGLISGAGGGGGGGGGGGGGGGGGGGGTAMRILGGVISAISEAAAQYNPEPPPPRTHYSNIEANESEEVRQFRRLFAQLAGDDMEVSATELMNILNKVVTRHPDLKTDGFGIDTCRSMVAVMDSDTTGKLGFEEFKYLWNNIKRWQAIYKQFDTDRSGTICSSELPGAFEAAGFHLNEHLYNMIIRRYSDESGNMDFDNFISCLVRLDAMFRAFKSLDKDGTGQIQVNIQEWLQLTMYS
# Assay text: Inhibition of Calpain (Succ-Leu-Tyr-MNA substrate hydrolysis)
# Assay type: biochemical
# Measurement parameters: 0.2 mM Succ-Leu-Tyr-MNA, pH 7.5, five to seven concentrations
# if measured IC50 < 0.02 µM: Y  # else: N

Given the entry CCCC[C@H](NC(=O)[C@@H](NC(=O)OCc1ccccc1)C(C)C)C(=O)C(=O)NOCc1ccccc1 , would its reported IC50 be below 0.02 µM?
N

Please give the result for CCONC(=O)C(=O)[C@H](Cc1ccccc1)NC(=O)[C@@H](COCc1ccccc1)NS(C)(=O)=O too.
N

Please give the result for CC(C)C[C@H](NC(=O)OCc1ccccc1)C(=O)N[C@@H](CC(C)C)C(=O)N[C@@H](Cc1ccccc1)C(=O)C(=O)NOCc1ccccc1 too.
Y

Please give the result for CCONC(=O)C(=O)[C@H](Cc1ccccc1)NC(=O)[C@H](CC(C)C)NC(=O)OCc1ccccc1 too.
Y

Please give the result for COC[C@H](NC(=O)[C@@H](COCc1ccccc1)NS(C)(=O)=O)C(=O)C(=O)NOCc1ccccc1 too.
N

Please give the result for CC(C)C[C@H](NC(=O)OCc1ccccc1)C(=O)N[C@@H](Cc1ccccc1)C(=O)C(=O)NOCc1ccccc1 too.
Y

Please give the result for CC(C)C[C@H](NC(=O)OCc1ccccc1)C(=O)N[C@@H](Cc1ccccc1)C(=O)C(=O)NOC(C)(C)C too.
N

Please give the result for CC(C)C[C@H](NC(=O)OCc1ccccc1)C(=O)N[C@@H](Cc1ccccc1)C(=O)C(=O)NOCc1c(F)c(F)c(F)c(F)c1F too.
Y

Please give the result for CCCCONC(=O)C(=O)[C@H](Cc1ccccc1)NC(=O)[C@H](CC(C)C)NC(=O)OCc1ccccc1 too.
N

Please give the result for CONC(=O)C(=O)[C@H](Cc1ccccc1)NC(=O)[C@H](CC(C)C)NC(=O)OCc1ccccc1 too.
Y
